# Method Summary: Antiplatelet activity in human platelet rich plasma assessed as inhibition of arachidonic acid-induced platelet aggregation preincubated for 3 mins before arachidonic acid challenge by turbidimetric method
# Type: functional
pIC50: −log10 of the molar value.
The following molecules are listed with their measured pIC50 values.
Parameter Measured: pIC50

> print(dat)
                            molecular.string  rel  recorded.measurement
 1    O=C(c1cc(-c2ccc(Cl)cc2)n[nH]1)N1CCOCC1    <                  5.00
 2  O=C(c1cc(-c2ccc(Cl)cc2)n(-c2ccc(=O)[nH]n2)n1)N1CCCCC1    =                  5.68
 3      COc1ccc(-n2nc(C(=O)N3CCOCC3)cc2C)nn1    <                  5.00
 4  CS(=O)(=O)c1ccc(-n2nc(C(=O)N3CCOCC3)cc2-c2ccc(Cl)cc2)nn1    <                  4.70
 5    O=C(c1cc(-c2ccc(Cl)cc2)n[nH]1)N1CCCCC1    <                  5.00
 6  COc1ccc(-c2onc(C(=O)N3CCCCC3)c2-c2ccc(Cl)cc2)cc1    =                  5.30
 7  COc1ccc(-n2nc(C(=O)N3CCN(c4ccc(C)cc4)CC3)cc2-c2ccc(Cl)cc2)nn1    =                  5.33
 8      COc1ccc(-n2nc(C(=O)N3CCCCC3)cc2C)nn1    <                  5.00
 9  COc1ccc(-n2nc(CCC(=O)N3CCCCC3)cc2-c2ccc(Cl)cc2)nn1    =                  6.04
10  COc1ccc(-n2nc(C(=O)N3CCCC3)cc2-c2ccc(Cl)cc2)cc1    =                  8.24
11  O=C(c1cc(-c2ccc(Cl)cc2)n(-c2ccc(=O)[nH]n2)n1)N1CCOCC1    =                  4.90
